Biological target: M1 muscarinic receptor (Homo sapiens, UniProt P11229)
Construct: expressed in transfected cells; host or cells: CHO (M1-CHO)
Sequence (P11229 whole entry): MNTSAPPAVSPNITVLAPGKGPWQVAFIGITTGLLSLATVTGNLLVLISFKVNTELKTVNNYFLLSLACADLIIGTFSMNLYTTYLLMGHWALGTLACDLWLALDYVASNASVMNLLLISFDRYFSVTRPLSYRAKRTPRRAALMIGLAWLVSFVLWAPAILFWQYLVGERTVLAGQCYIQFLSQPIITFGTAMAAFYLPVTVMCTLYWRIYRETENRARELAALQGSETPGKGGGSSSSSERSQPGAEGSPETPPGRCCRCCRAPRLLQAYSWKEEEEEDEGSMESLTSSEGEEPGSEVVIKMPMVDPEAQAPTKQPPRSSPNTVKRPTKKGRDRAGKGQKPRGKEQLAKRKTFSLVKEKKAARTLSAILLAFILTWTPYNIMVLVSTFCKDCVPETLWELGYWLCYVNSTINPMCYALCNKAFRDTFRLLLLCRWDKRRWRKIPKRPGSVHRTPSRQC
Experiment: cell-based
Conditions: read-out: M1 Activity

- Molecule: "CCOC(=O)N1C2CCC1CC(N1CCC(N(CC(=O)CC)c3ccc(F)cc3)CC1)C2 (stereo not shown)"
  EC50: "< 2000 nM"

---

Target: M2 muscarinic receptor (Homo sapiens, UniProt P08172)
Construct: expressed in transfected cells; host or cells: CHO (M2-CHO)
Sequence (P08172 whole entry): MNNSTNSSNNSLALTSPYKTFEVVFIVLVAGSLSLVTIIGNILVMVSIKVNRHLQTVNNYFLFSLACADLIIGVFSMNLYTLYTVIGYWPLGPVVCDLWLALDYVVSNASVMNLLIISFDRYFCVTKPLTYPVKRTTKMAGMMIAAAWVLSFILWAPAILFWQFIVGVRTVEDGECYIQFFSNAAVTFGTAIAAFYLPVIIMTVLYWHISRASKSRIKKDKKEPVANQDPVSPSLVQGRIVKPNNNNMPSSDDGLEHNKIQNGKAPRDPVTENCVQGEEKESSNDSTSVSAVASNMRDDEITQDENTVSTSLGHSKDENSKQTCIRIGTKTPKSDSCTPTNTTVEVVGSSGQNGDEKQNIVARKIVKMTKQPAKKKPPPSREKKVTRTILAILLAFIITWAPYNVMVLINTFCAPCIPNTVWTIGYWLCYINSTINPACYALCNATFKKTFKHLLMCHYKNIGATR
Test: cell-based
Conditions: read-out: M2 Efficacy

- Compound: "CCOC(=O)N1C2CCC1CC(N1CCC(N(C)c3ccccc3)CC1)C2 (stereo not drawn)"
  Emax: "< 25%"
- Compound: "CCOC(=O)N1C2CCC1CC(N1CCC(N(Cc3ccccc3)C(C)=O)CC1)C2 (stereo not drawn)"
  Emax: "25 to 100%"
- Compound: "CCOC(=O)N1C2CCC1CC(N1CCC(N(C)c3ccc(F)cc3)CC1)C2 (stereo not drawn)"
  Emax: "< 25%"
- Compound: "CCOC(=O)N1C2CCC1CC(N1CCC(N(C(C)=O)C3CCCC3)CC1)C2 (stereo not drawn)"
  Emax: "25 to 100%"
- Compound: "CCOC(=O)N1C2CCC1CC(N1CCC(N(C(C)=O)C(C)C)CC1)C2 (stereo not drawn)"
  Emax: "< 25%"
- Compound: "CCOC(=O)N1C2CCC1CC(N1CCC(Nc3ccc(F)cc3)CC1)C2 (stereo not drawn)"
  Emax: "< 25%"
- Compound: "CCOC(=O)N1C2CCC1CC(N1CCC(N(CC(=O)CC)c3ccc(F)cc3)CC1)C2 (stereo not drawn)"
  Emax: "< 25%"
- Compound: "CCOC(=O)N1C2CCC1CC(N1CCC(N(C(C)=O)C3CCCCC3)CC1)C2 (stereo not drawn)"
  Emax: "< 25%"
- Compound: "CCOC(=O)N1C2CCC1CC(N1CCC(N(CC(C)C)S(=O)(=O)c3ccc(C(F)(F)F)cc3)CC1)C2 (stereo not drawn)"
  Emax: "< 25%"
- Compound: "CCOC(=O)N1C2CCC1CC(N1CCC(N(CC)c3ccccc3)CC1)C2 (stereo not drawn)"
  Emax: "< 25%"
- Compound: "CCCN(C1CCN(C2CC3CCC(C2)N3C(=O)OCC)CC1)S(=O)(=O)c1ccc(C(F)(F)F)cc1 (stereo not drawn)"
  Emax: "< 25%"
- Compound: "CCOC(=O)N1C2CCC1CC(N1CCC(N(c3ccc(F)cc3)S(C)(=O)=O)CC1)C2 (stereo not drawn)"
  Emax: "< 25%"

---

Target: M1 muscarinic receptor (Homo sapiens, UniProt P11229)
Construct: expressed in transfected cells; host or cells: CHO (M1-CHO)
Experiment: cell-based
Readout Type: EC50

- Compound: "CCOC(=O)N1C2CCC1CC(N1CCC(N(C)c3ccc(F)cc3)CC1)C2 (centres unmarked)"
  Subject Of Test: "M1 muscarinic receptor (Homo sapiens, UniProt P11229)"
  Result: "> 5 µM"
- Compound: "CCOC(=O)N1C2CCC1CC(N1CCC(Nc3ccc(F)cc3)CC1)C2 (centres unmarked)"
  Subject Of Test: "M1 muscarinic receptor (Homo sapiens, UniProt P11229)"
  Result: "2 to 5 µM"
- Compound: "CCOC(=O)N1C2CCC1CC(N1CCC(N(CC(=O)CC)c3ccc(F)cc3)CC1)C2 (centres unmarked)"
  Subject Of Test: "M1 muscarinic receptor (Homo sapiens, UniProt P11229)"
  Result: "< 2 µM"
- Compound: "CCOC(=O)N1C2CCC1CC(N1CCC(N(C(C)=O)C3CCCCC3)CC1)C2 (centres unmarked)"
  Subject Of Test: "M1 muscarinic receptor (Homo sapiens, UniProt P11229)"
  Result: "< 2 µM"
- Compound: "CCOC(=O)N1C2CCC1CC(N1CCC(N(CC(C)C)S(=O)(=O)c3ccc(C(F)(F)F)cc3)CC1)C2 (centres unmarked)"
  Subject Of Test: "M1 muscarinic receptor (Homo sapiens, UniProt P11229)"
  Result: "> 5 µM"
